These data points were gathered from the supplement of paper PMC7877785.

Assay: self-splicing fitness, log relative to wild type (ln ratio); higher = more splicing; Tetrahymena group I intron in knt gene, E. coli kanamycin selection, DiMSum; sequences stand for … in CUCUCU…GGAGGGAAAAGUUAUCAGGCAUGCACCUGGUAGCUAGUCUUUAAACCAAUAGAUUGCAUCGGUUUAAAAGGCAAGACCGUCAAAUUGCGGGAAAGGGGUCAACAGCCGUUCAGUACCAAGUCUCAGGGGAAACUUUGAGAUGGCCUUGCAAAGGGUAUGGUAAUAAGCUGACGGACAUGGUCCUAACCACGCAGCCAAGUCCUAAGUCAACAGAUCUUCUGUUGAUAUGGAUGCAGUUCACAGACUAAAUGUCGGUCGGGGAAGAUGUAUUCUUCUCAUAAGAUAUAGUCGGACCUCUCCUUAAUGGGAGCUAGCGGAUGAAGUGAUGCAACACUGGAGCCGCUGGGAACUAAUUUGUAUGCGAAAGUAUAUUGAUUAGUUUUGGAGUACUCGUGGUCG;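 further: selection with 25 µg/mL kanamycin versus none on LB agar overnight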
Conditions: 37 °C
Consider the following sequences and their measured self-splicing fitness (ln) readings.

Some entries whose results are on file:
    biopolymer_sequence  endpoint_value
0  GGCAAGCAAUAUUACGUUUU           0.186
1  GUAGAGCAAUAUUACGCGCA          0.0346
2  CGUUAGCAAUAUUACGACAC          -0.891

Documented self-splicing fitness (ln) of `CUAAAGCAAUAUUACGGUUU` : -2.81

Item: `AACAAGCAAUAUUACGUCUC` | self-splicing fitness (ln): -1.89

What the record says about `UAUUAGCAAUAUUACGACAA` : self-splicing fitness (ln) is -0.127

The reported value for `CAGUAGCAAUAUUACGGGCG` in terms of self-splicing fitness (ln) is 0.0762

Noted for `UGGCAGCAAUAUUACGUCUU` : its self-splicing fitness (ln) reads 0.494

// `UGGUAGCAAUAUUACGUCUU` : self-splicing fitness (ln) value = 0.37

// sample `UUACAGCAAUAUUACGGGCU` , its self-splicing fitness (ln) was -2.32

The recorded self-splicing fitness (ln) for entry `UAAUAGCAAUAUUACGCUUA` equals -0.932

Short answer for `UCUCAGCAAUAUUACGCGCG` : self-splicing fitness (ln) was -1.71

// sample `GCAGAGCAAUAUUACGGUUG` , its self-splicing fitness (ln) was -2.87

Reported self-splicing fitness (ln) for `GACAAGCAAUAUUACGACGC` was 0.643

###

Test: self-splicing fitness, log relative to wild type (ln ratio); higher = more splicing; Tetrahymena group I intron in knt gene, E. coli kanamycin selection, DiMSum; sequences stand for … in CUCUCU…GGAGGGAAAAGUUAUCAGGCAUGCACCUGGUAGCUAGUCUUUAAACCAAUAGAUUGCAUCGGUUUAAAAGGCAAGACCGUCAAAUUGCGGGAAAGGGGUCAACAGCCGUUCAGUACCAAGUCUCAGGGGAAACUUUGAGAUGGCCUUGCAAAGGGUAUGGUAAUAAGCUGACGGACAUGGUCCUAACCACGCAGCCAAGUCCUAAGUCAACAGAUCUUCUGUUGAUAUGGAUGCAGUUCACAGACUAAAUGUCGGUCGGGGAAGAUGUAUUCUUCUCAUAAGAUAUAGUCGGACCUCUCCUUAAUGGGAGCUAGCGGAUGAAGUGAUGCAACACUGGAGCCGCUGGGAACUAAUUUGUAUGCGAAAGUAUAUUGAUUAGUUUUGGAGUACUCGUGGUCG
Conditions: 30 °C
Parameter self-splicing fitness (ln): see the listing below.
Respond using a number only.

Consider the worked cases shown below.
>>> df
    biopolymer_sequence  endpoint_value
0  GUGAAGCAAUAUUACGAGUA           -1.84
1  GGACAGCAAUAUUACGAUCG          -0.492
2  GAACAGCAAUAUUACGGUUA           -0.16
3  CUACAGCAAUAUUACGUCGG           -1.98
4  AAAUAGCAAUAUUACGGAGA           -1.86

self-splicing fitness (ln) reading for `AGCGAGCAAUAUUACGAAAU` : -2.79

Item: `AAACAGCAAUAUUACGAACU` | self-splicing fitness (ln): -0.252

// field: self-splicing fitness (ln); key: `CGACAGCAAUAUUACGAAUU` ; value = -3.51

Record `GCAGAGCAAUAUUACGGUUG` , field self-splicing fitness (ln): -3.01

Lab book: self-splicing fitness (ln) of `UCCAAGCAAUAUUACGCGGC` noted as -2.74

Recorded result, `GUCCAGCAAUAUUACGAGAA` , self-splicing fitness (ln): -0.724

self-splicing fitness (ln) reading for `AGGCAGCAAUAUUACGCUUG` : -2.81

Form field self-splicing fitness (ln), entry `UCUUAGCAAUAUUACGAGAA` : -2.37

The sequence identified as `GAGCAGCAAUAUUACGACAG` registered its self-splicing fitness (ln) at -3.25

Lab note: `GCCUAGCAAUAUUACGCUGG` gave self-splicing fitness (ln) of -2.92

Recorded self-splicing fitness (ln) (sequence `GGCUAGCAAUAUUACGUGGU` ): -3.18

###

Assay: self-splicing fitness, log relative to wild type (ln ratio); higher = more splicing; Tetrahymena group I intron in knt gene, E. coli kanamycin selection, DiMSum; sequences stand for … in CUCUCU…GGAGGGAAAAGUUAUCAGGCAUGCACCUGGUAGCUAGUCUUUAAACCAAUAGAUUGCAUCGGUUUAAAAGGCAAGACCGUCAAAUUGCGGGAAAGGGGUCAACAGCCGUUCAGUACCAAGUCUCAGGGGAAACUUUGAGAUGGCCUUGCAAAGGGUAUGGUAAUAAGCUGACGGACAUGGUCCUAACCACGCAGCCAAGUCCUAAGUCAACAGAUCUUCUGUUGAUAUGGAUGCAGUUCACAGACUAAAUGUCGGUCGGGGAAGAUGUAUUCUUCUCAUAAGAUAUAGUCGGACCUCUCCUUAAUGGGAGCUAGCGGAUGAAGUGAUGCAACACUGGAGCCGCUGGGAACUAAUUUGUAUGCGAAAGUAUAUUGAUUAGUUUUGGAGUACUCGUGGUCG
Conditions: 30 °C
endpoint: self-splicing fitness (ln)
// return a plain number; no unit text

Please review the following examples before continuing.
>>> df
    biopolymer_sequence  endpoint_value
0  GUCAAGCAAUAUUACGCUGA            -5.3
1  GCCCAGCAAUAUUACGAGAG           -2.63

So for `UUGUAGCAAUAUUACGGGAA` , the logged self-splicing fitness (ln) turned out to be -2.13

Noted for `CGGCAGCAAUAUUACGGCUA` : its self-splicing fitness (ln) reads -0.121

Form: sequence = `GGCGAGCAAUAUUACGUUAC` ; self-splicing fitness (ln) = -3.24

Given item `GAACAGCAAUAUUACGAUGA` , the value recorded as its self-splicing fitness (ln) is -0.145

Value of self-splicing fitness (ln) reported for the sequence `AAGGAGCAAUAUUACGGGAA` is -2.09

Input `AAGCAGCAAUAUUACGCCCU` . Output self-splicing fitness (ln): -0.309

###

Reported self-splicing fitness (ln) values for a set of sequences
Assay: self-splicing fitness, log relative to wild type (ln ratio); higher = more splicing; Tetrahymena group I intron in knt gene, E. coli kanamycin selection, DiMSum; sequences stand for … in CUCUCU…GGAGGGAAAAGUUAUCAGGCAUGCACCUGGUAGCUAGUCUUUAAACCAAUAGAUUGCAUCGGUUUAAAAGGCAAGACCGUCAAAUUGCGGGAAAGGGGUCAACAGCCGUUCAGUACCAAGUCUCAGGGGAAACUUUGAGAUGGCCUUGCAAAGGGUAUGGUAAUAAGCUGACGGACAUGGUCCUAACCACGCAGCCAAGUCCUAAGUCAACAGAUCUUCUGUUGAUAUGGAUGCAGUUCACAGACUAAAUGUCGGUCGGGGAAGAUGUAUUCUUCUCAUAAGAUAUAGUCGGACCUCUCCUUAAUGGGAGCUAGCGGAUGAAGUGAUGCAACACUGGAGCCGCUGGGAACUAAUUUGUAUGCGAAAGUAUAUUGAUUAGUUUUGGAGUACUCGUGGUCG
Conditions: 37 °C
Answer field: number only, no words.

Sample answers from the record:
>>> print(df.to_string())
    biopolymer_sequence                    endpoint  endpoint_value
0  ACUAAGCAAUAUUACGAUAC  self-splicing fitness (ln)           -1.29
1  GCAUAGCAAUAUUACGACGG  self-splicing fitness (ln)           -1.01
2  CUGUAGCAAUAUUACGCGGU  self-splicing fitness (ln)           -2.33
3  GUGCAGCAAUAUUACGUGGG  self-splicing fitness (ln)           -2.01
4  GUAGAGCAAUAUUACGCAGU  self-splicing fitness (ln)           -1.45
5  AUGAAGCAAUAUUACGCACU  self-splicing fitness (ln)           0.992
6  CACCAGCAAUAUUACGAUAG  self-splicing fitness (ln)          0.0494
7  GGAGAGCAAUAUUACGAUAG  self-splicing fitness (ln)           -1.94
8  UGCUAGCAAUAUUACGUGAG  self-splicing fitness (ln)           -1.78
9  CCAUAGCAAUAUUACGAUAC  self-splicing fitness (ln)           -2.33

self-splicing fitness (ln) in this record for `GGUAAGCAAUAUUACGAGGU` : -2.22

Per the record, `ACGCAGCAAUAUUACGGCAA` has self-splicing fitness (ln) of -0.421

Form: sequence = `UACUAGCAAUAUUACGGUCC` ; self-splicing fitness (ln) = -0.676

Per the records, this sequence ( `UGGCAGCAAUAUUACGCAAG` ) has self-splicing fitness (ln) equal to -2.44

Please fill in: self-splicing fitness (ln) reported for `UUUCAGCAAUAUUACGUUGG` = -2.52

Entry `CUACAGCAAUAUUACGGGUC` — recorded self-splicing fitness (ln) = -2.44

sequence `AGAGAGCAAUAUUACGUUCA` , self-splicing fitness (ln) observed: -1.81
